B1: mRNA-splicing (parent)
chain: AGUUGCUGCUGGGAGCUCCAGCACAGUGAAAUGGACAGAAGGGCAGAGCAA

variants of: B1; assay: exon inclusion enrichment index; higher = more inclusion; WT1 exon 5 minigene, HEK293
measured attribute: exon inclusion enrichment index
I only need the number, thanks.

residue change: G5U G8U C9U U10G G11U
result: 0.498
--
residue change: G5U G8U C9U A40U G41A
result: 0.00332
--
residue change: U10C G11U
result: 2.21
--
residue change: G5A U7C G8A U10C G21U
result: 1.92
--
residue change: U27A
result: 0.201

The measured exon inclusion enrichment index associated with G5C C6U G8C C9U U10C A30C reads 2.23

The measured exon inclusion enrichment index associated with G5C C6U G8C C9U U10C C44U A45U reads 1.28

All values here come from the RNAGym collection of RNA variant scans (doi:10.1101/gr.219683.116).
